These entries and their values trace back to PubChem BioAssay AID463173.

Tested on: DeltatarO mutant
assay_remarks: S. aureus survival, RN4220 and DeltatarO strains – OD600, teichoic acid synthesis inhibitors, primary screen (AID 463173)
assay_conditions: S. aureus RN4220 wild type/DeltatarO growth, OD600, 18 h, screened at 18.75 µg/mL (by protocol)
Screen size: about 52,000 compounds; about 4,300 (8.3%) were called active. Rule as the data show it: active = survival mostly below about 52% (no sharp cut-off); inactive = mostly above about 56%. Many of the other results were omitted from the sample, so actives are more common in it than they were.
Outcome codes: yes (1) for active, no (0) for inactive

| compound | category |
| --- | --- |
| CCC1CN(C(=O)Nc2cccc3c2CCCC3)c2cc(C)ccc2O1 (configuration not stated) | no (0) |
| Cc1ccc(-c2nnc(NC3CCCC3)s2)cc1 | no (0) |
| CCOCCc1nn2c(=O)cc(COC(=O)c3ccc4c(c3)OCO4)nc2s1 | no (0) |
| Cc1ccc(-n2ncc3c(N4CCN(CCO)CC4)ncnc32)cc1Cl | no (0) |
| CCOCCc1nn2c(=O)cc(COC(=O)CNC(=O)c3cccc(C)c3)nc2s1 | no (0) |
| Cc1c(C(=O)Nc2ccc(Br)cc2F)oc2ccc(S(=O)(=O)N3CCC4(CC3)OCCO4)cc12 | no (0) |
| COc1ccc(CNC(=O)COCc2cc(-c3cccs3)on2)cc1 | no (0) |
| CCOc1ccccc1NC(=O)Cn1ccn(-c2ccccc2)c(=O)c1=O | no (0) |
| Cc1ccc2cc(CN(C(=O)c3cccc(Cl)c3)c3ccccc3)c(=O)[nH]c2c1 | no (0) |
| CCC1CN(C(=O)Nc2cc(C)ccc2OC)c2cc(Cl)ccc2O1 (configuration not stated) | yes (1) |
| COc1ccccc1N1CCN(C(=O)Cn2cnc3onc(-c4ccc(F)cc4)c3c2=O)CC1 | no (0) |
| CCC1CN(C(=O)Nc2cccc3c2CCCC3)c2ccccc2O1 (configuration not stated) | no (0) |
| CCc1ccccc1NC(=O)N1CC(CC)Oc2ccc(Cl)cc21 (configuration not stated) | no (0) |
| CCC1CN(C(=O)Nc2cccc3c2CCCC3)c2cc(Cl)ccc2O1 (configuration not stated) | yes (1) |
| CCOc1ccc(C(=O)Nc2cccc(C(=O)OCc3cc(=O)n4nc(C5CC5)sc4n3)c2)cc1 | no (0) |
| CCCc1nn2c(=O)cc(COC(=O)c3ccccc3NC(=O)c3ccc(OCC)cc3)nc2s1 | no (0) |
| CCOc1ccc(NC(=O)c2cnc3sc(N4CCOCC4)nn3c2=O)cc1 | no (0) |
| N#Cc1ccc(C(=O)N2CCN(c3nc4ccc(F)cc4s3)CC2)cc1 | no (0) |
| N#CSc1cnc(NC2CCCCC2)s1 | yes (1) |
| CCCCc1nn2c(=O)cc(COC(=O)c3ccccc3C)nc2s1 | no (0) |
| Cc1cc(C)c(C#N)c(NC2CCCCC2)n1 | no (0) |
| COc1ccc(C)cc1NC(=O)c1ccc2c(c1)CCN2S(=O)(=O)c1ccc(Cl)cc1 | no (0) |
